# measured_on: leptin receptor on reporter cells (SIE-luciferase reporter cells; Ba/F3-lepR reporter cells), P48357
# Sequence (P48357 22-1165): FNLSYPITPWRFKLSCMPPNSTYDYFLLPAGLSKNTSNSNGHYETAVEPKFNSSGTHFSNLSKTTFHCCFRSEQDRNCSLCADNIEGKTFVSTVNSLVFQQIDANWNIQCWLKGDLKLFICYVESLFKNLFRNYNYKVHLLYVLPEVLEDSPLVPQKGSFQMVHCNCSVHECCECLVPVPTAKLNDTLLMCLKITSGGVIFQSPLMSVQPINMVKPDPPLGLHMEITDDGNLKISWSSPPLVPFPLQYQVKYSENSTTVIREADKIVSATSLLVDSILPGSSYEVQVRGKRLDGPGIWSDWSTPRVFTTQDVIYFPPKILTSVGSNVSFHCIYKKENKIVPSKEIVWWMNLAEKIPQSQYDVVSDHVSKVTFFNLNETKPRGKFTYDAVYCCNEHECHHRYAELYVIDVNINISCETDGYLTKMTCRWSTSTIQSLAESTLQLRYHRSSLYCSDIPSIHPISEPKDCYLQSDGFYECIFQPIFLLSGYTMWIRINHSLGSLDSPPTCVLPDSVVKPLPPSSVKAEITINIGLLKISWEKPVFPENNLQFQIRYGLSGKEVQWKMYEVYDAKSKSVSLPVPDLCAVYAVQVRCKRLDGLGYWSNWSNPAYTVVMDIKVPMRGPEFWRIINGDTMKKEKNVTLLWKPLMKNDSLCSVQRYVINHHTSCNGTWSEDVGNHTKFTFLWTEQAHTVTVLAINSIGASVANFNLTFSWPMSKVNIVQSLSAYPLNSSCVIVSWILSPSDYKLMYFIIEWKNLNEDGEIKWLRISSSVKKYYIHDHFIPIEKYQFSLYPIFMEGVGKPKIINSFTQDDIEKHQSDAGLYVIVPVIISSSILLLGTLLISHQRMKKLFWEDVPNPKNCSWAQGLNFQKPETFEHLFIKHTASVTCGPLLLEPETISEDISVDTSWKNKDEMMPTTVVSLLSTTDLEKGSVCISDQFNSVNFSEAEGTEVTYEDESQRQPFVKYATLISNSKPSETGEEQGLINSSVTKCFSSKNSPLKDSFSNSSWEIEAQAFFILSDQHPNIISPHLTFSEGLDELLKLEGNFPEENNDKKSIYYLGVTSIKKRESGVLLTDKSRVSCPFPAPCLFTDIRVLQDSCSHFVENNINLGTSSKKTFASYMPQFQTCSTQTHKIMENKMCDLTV
# protocol_description: cell-based or functional assay
EC50(M), Cell proliferation assay (Ba/F3-lepR) overview
quantity_measured: EC50(M), Cell proliferation assay (Ba/F3-lepR)

>>> result("S2H3 (antibody, V domains shown) VH: QVQLLQSGGGVVQPGRSLRLSCAASGFTFSSYGMHWVRQAPGKGLEWVAVISYDGSNKYYADSVKGRFTISRDNSKNTLYLQMNSLRAEDTAVYYCAGVRENYFTYWGQGTLVTVSS VL: EIVLTQSPGTLSLSPGERATLSCRASQSVSSNYLAWYQQKPGQAPRLLIYGASSRPTGIPDRFSGSGSGTDFTLTISRLEPEDFAVYYCQQYAASPLTFGGGTKLEIK")
"1.93e-10 M"
>>> result("S2H5 (antibody, V domains shown) VH: QVQLLQSGGGVVQPGRSLRLSCAASGFTFSSYGMHWVRQAPGKGLEWVAVISYDGSNKYYADSVKGRFTISRDNSKNTLYLQMNSLRAEDTAVYYCASRYENYFSLWGQGTLVTVSS VL: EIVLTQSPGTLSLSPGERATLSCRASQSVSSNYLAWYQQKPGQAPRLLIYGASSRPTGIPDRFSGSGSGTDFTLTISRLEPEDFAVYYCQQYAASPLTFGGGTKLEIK")
"1.63e-09 M"
>>> result("S2H1 (antibody, V domains shown) VH: QVQLLQSGGGVVQPGRSLRLSCAASGFTFSSYGMHWVRQAPGKGLEWVAVISYDGSNKYYADSVKGRFTISRDNSKNTLYLQMNSLRAEDTAVYYCASLYENYFSLWGQGTLVTVSS VL: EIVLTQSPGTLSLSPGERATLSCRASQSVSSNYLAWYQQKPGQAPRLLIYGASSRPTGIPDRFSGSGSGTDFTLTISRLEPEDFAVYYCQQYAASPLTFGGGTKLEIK")
"4.19e-10 M"
>>> result("S2H2 (antibody, V domains shown) VH: QVQLLQSGGGVVQPGRSLRLSCAASGFTFSSYGMHWVRQAPGKGLEWVAVISYDGSNKYYADSVKGRFTISRDNSKNTLYLQMNSLRAEDTAVYYCATFRENYFEYWGQGTLVTVSS VL: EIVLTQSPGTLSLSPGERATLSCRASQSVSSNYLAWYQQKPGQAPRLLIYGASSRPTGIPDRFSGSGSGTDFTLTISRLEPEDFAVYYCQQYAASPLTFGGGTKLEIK")
"6.87e-10 M"
>>> result("S2H7 (antibody, V domains shown) VH: QVQLLQSGGGVVQPGRSLRLSCAASGFTFSSYGMHWVRQAPGKGLEWVAVISYDGSNKYYADSVKGRFTISRDNSKNTLYLQMNSLRAEDTAVYYCATRYENYFSTWGQGTLVTVSS VL: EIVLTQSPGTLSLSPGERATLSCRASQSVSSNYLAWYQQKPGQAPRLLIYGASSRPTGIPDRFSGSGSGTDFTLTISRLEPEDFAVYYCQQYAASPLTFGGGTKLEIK")
"1.15e-09 M"
